Provenance of the data: patent US20200399385A1

# system tested: T1, human OX40 on cells (human, UniProt P43489 29-277)
# T1 sequence: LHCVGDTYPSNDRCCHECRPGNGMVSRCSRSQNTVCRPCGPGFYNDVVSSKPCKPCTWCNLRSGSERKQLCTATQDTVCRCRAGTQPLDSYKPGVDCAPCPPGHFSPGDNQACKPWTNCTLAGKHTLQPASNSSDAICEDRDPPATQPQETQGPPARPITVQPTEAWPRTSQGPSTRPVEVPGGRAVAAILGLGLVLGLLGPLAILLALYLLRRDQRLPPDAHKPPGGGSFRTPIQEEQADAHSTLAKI
# assay overview: cell-based or functional assay
reported endpoint: Proliferation EC50, CD4 T cells + CHO-CD3-CD32A (nM)
Give just the number in nM; leave the unit off.

6E1 (antibody, V domains shown, also called 6E1.A12.A2; 6E1.A12) VH: QVQLVESGGGVVQPGRSLRLSCAASGFTFSSFAMHWVRQAPGKGLEWVTVISYDGSIKYYTDSVKGRFTFSRDNSKNTLYLQMNSLRAEDTAVYYCTRDGNYGSARYFQHWGQGTLVTVSS VL: EIVLTQSPATLSLSPGERATLSCRASQSVSSYLAWYQQKPGQAPRLLIYDASNRATGIPARFSGSGSGTDFTLTISSLEPEDFAVYYCQQRSNWPYTFGQGTKLEIK
0.014
14B6 (antibody, V domains shown, also called 14B6.C5.C8; 14B6.C5) VH: EVQLEQSGAEVKKPGESLKISCKGSGYSFTSNWIGWVRQMPGKGLEWMGFIYPGDSDTRYSPSFQGQVTISADKSISTAYLQWSSLKASDIAMYYCARYGDDWYFDLWGRGTLVTVSS VL: EIVLTQSPATLSLSPGERATLSCRASQSVSSYLAWFQQRPGQAPRLLIYDASNRATGIPARFSGSGSGTDFSLTISSLEPEDFAVYYCQQRGDWPITFGQGTRLEIK
0.012
OX40.16 (antibody, human IgG1, kappa, V domains shown) VH: EVQLVQSGGGLVQPGGSLRLSCAGSGFTFSSYAMYWVRQAPGKGLEWVSAIDTDGGTFYADSVRGRFTISRDNAKNSLYLQMNSLRAEDTAVYFCARLGEGYFFDYWGQGTLVTVSS VL: EIVLTQSPATLSLSPGERATLSCRASQSVSSYLAWYQQKPGQAPRLLIYDASNRATGIPARFSGSGSGTDFTLTISSLEPEDFAVYYCQQRSNWPPTFGGGTKVEIKR
0.017

Fill in: Proliferation EC50, CD4 T cells + CHO-CD3-CD32A of 20B3 (antibody, V domains shown, also called 20B3.G12.A2; 20B3.G2) VH: EVQLVESGGGLVQPGGSLRLSCAASGFTFSSYDMHWVRQTTGKGLEWVSVIGTAGDTYYPGSVKGRFTISRENAKNSLYLQMNSLRAGDTAVYYCARGGMGNYFDYWGQGTLVTVSS VL: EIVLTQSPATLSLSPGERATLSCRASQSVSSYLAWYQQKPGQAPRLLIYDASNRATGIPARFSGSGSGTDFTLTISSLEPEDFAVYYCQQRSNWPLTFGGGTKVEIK is ___
0.008

Fill in: Proliferation EC50, CD4 T cells + CHO-CD3-CD32A of 23H3 (antibody, V domains shown, also called 23H3.C6) VH: EVQLVQSGGGLVHPGGSLRLSCAGSGFTFSNYAMYWVRQAPGKGLEWVSAIGIGGDTFYTDSVKGRFTISRDNAKNSLSLQMNSLRAEDMAVYYCARMGTGYFFDYWGQGTLVTVSS VL: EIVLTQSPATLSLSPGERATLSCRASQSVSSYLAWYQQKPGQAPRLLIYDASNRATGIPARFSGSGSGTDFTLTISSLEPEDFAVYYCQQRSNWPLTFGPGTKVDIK is ___
0.028

Fill in: Proliferation EC50, CD4 T cells + CHO-CD3-CD32A of 18E9 (antibody, V domains shown, human mAb from hybridoma; also called 18E9.G5.H4; 18E9.G5) VH: EVQLVQSGGGLVHPGGSLRLSCAHSGFTFTSSAMHWVRQAPGKGLEWISAIGTGGDTYYADSVKGRFTISRDNAKNSLYLQINSLRAEDMAVYYCARDFYDILTGIFDYWGQGTLVTVSS VL: DIQMTQSPSSVSASVGDRVTITCRASQGISSWLAWYQHKPGKAPKLLIYAASSLQSGVPSRFSGSGSGTDFTLTISSLQPEDFATYYCQQANSFPSTFGQGTKVEIK is ___
0.01
